METHOD NOTES: Distribution coefficient, log D of the compound by HPLC method
Assay type: physicochemical
COND: octanol/water
ASSAY METRIC: logD
In your answer, state the number alone without any accompanying words.

Nc1ccccc1NC(=O)c1ccc(CNC2=N[C@@H](Cc3ccccc3)CO2)cc1 | 2.86

Requested read-out: logD. Entry: Nc1ccccc1NC(=O)c1ccc(CNC2=N[C@@H](c3ccccc3)CN2)cc1
1.92

Item Nc1ccccc1NC(=O)c1ccc(CNC2=N[C@@H](c3ccccc3)[C@H](c3ccccc3)O2)cc1 has what recorded logD?
5.01

Look at this compound and give its reported logD. Nc1ccccc1NC(=O)c1ccc(CSC2=N[C@@H](c3cccnc3)CO2)cc1
3.19

If you can, please state the reported logD value of Nc1ccccc1NC(=O)c1ccc(CNC2=N[C@@H](c3ccccc3)CO2)cc1 .
3.1

logD lookup needed for Nc1ccccc1NC(=O)c1ccc(CNc2nccc(-c3cccnc3)n2)cc1 [MOCETINOSTAT] , thanks.
2.96

Suppose we examine the compound Nc1ccccc1NC(=O)c1ccc(CNC2=N[C@H](Cc3c[nH]cn3)CO2)cc1 ; what logD value has been reported?
0.89

Could you tell me which logD is on file for Nc1ccccc1NC(=O)c1ccc(CSC2=N[C@@H](Cc3ccccc3)CO2)cc1 ?
5.41

Entry Nc1ccccc1NC(=O)c1ccc(CNC2=NC[C@@H](c3ccccc3)O2)cc1 : reported logD = ?
2.79
